Experiment: NCI Yeast Anticancer Drug Screen. Data for the cln2 rad14 strain (AID 165);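 note: 0% = growth equal to vehicle treated cultures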
Conditions: S. cerevisiae cln2 rad14 strain, at 50.0 µM, active compounds read high
Method: Growth inhibition of yeast strains with defined genetic alterations is measured as a screen for potential anti-cancer activity. Selected strains with alterations in DNA damage repair or cell cycle control were exposed to compounds and growth inhibition was measured relative to vehicle treated controls. The strain used in this assay is cln2 rad14
The panel holds about 79,000 compounds, 15% with a hit somewhere; the sample as a whole holds those more often.
// values below are reported growth inhibition
Report the value in % with no unit label.

- COMPOUND: "COc1ccc(/C(=N\\NC(=O)C(N)=O)C(c2ccc(OC)cc2)C2(O)C(=O)Nc3c(Cl)cccc32)cc1 (stereo not drawn)"
  READOUT_TYPE: "growth inhibition"
  VALUE: 32.5

-- ask Look up growth inhibition: `O=S(=O)(Oc1cccc2ccccc12)c1ccc(Br)cc1`
-- reply -9.75

-- ask Please answer likewise for `CCCCc1noc(N)c1SCC`
-- reply -39.6

* * *

Experiment: NCI Yeast Anticancer Drug Screen. Data for the sgs1 mgt1 strain (AID 161);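 note: 0% = growth of cultures given vehicle only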
Settings: S. cerevisiae sgs1 mgt1 strain, at 50.0 µM, active compounds read high
The panel holds about 79,000 compounds, 15% with a hit somewhere; the sample as a whole holds those more often.
// values below are reported growth inhibition
Report the value in % with no unit label.

- COMPOUND: "C=CC12CCCCC1C(NC)Cc1ccc(OC)c(O)c12 (stereo not drawn)"
  growth inhibition (%): 6.9
- COMPOUND: "O=C(NC1CC/C=C(/c2ccccc2)CC(Cl)C1)c1ccccc1 (stereo not drawn)"
  growth inhibition (%): -8.9
- COMPOUND: "Cc1cc2c(c(C(=O)NCC(=O)N[C@@H](C)C(=O)OCc3ccccc3)c1)Oc1c(cc(C)cc1C(=O)NCC(=O)N[C@@H](C)C(=O)OCc1ccccc1)S2"
  growth inhibition (%): 23.8

-- ask Look up growth inhibition: `Nc1nc(SCCc2ccccc2)c2[nH]cnc2n1`
-- reply -42.6

-- ask Please answer likewise for `N[C@H]1c2c(Cl)cccc2C(=O)[C@H]1O`
-- reply -23.2

-- ask Please answer likewise for `O=S(=O)(c1ccccc1)n1c2c(c3ccccc31)Cc1ccccc1-2`
-- reply -16.9

* * *

// values below are reported growth inhibition
Assay: NCI Yeast Anticancer Drug Screen. Data for the sgs1 mgt1 strain (AID 161);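 note: 0% = growth of cultures given vehicle only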
Details: S. cerevisiae sgs1 mgt1 strain, at 50.0 µM, active compounds read high
About 79,000 compounds went through this panel and 15% of them were active in at least one assay; those are over-represented in the sample as a whole.
Report the value in % with no unit label.

Would you please look over these solved cases?
- MOLECULE: "CCC1=C(C(C)=O)[C@@H]2CCCCC(C(=O)OC)[C@@H]2C1=O (stereo partly specified)"
  VALUE: -20.8
- MOLECULE: "C=C1CC(C)(COc2cc(=O)oc3ccccc23)OC1=O (stereo unspecified)"
  VALUE: 53.2
- MOLECULE: "O=C(O)CSC(=S)c1ccccc1"
  VALUE: 4
- MOLECULE: "NNc1ccc(S(=O)(=O)C(F)F)cc1"
  VALUE: 20.6
- MOLECULE: "O=C1N(Cl)C2C(N1Cl)N(Cl)C(=O)N2Cl (stereo unspecified)"
  VALUE: -18.4

-- ask Look up growth inhibition: `CSC(=N/N=C(\C)c1ccccn1)SC`
-- reply 5.3

-- ask Please answer likewise for `O=C(Nc1ccc2[nH]c3c(-c4ccccc4)nccc3c2c1)c1ccccc1[N+](=O)[O-]`
-- reply -5.3

-- ask Please answer likewise for `CC(=O)ON1CCC=NC1`
-- reply -20.4

-- ask Please answer likewise for O=c1c2cc(Br)ccc2n(C2OC(CO)C(O)C(O)C2O)c(=S)n1-c1ccccc1 (stereo unspecified)
-- reply 31.7

-- ask Please answer likewise for `C=C1c2nc3ccccc3n2C=C(c2ccc(Cl)cc2)N1c1ccccc1`
-- reply -10.7

-- ask Please answer likewise for `O=C(Nc1ccccc1Cl)NC1CCCCC1`
-- reply 5.35

* * *

// values below are reported growth inhibition
Assay: NCI Yeast Anticancer Drug Screen. Data for the mec2-1 strain (AID 157)
Conditions: S. cerevisiae mec2-1 strain, at 50.0 µM, active compounds read high
Compounds without any hit were thinned out: in the full panel of roughly 79,000, 15% have a hit.
Report the value in % with no unit label.

- COMPOUND: "COc1cc(C(c2cc3c(cc2OC(C)=O)OCO3)C(C(C)=O)C(C)=O)cc(OC)c1OC (stereo not given)"
  UNITS: "%"
  VALUE: 27.8

Kindly consider the entry below.
-- ask Look up growth inhibition: N#CC(c1ccc(O)cc1)N1CCN(C(C#N)c2ccc(O)cc2)CC1 (stereo not given)
-- reply 1

* * *

Experiment: NCI Yeast Anticancer Drug Screen. Data for the mlh1 rad18 strain (AID 175)
Details: S. cerevisiae mlh1 rad18 strain growth inhibition; at 50.0 µM; active compounds read high
Compounds without any hit were thinned out: in the full panel of roughly 79,000, 15% have a hit.
READOUT_TYPE: growth inhibition (%)
Report the value in % with no unit label.

-- ask Look up growth inhibition: `Cc1ccc(S(=O)(=O)N(CCOc2c3occc3cc3ccc(=O)oc23)CCN(CCN(CCOc2c3occc3cc3ccc(=O)oc23)S(=O)(=O)c2ccc(C)cc2)S(=O)(=O)c2ccc(C)cc2)cc1`
-- reply -6.8

-- ask Please answer likewise for `CC(C)CCN(CCCNc1c2c(nc3ccc(Cl)cc13)CCCC2)CCC(C)C`
-- reply 4.95

-- ask Please answer likewise for `CC(C)(O)/C(=N/O)c1ccc(-c2ccccc2)cc1`
-- reply 10.8

-- ask Please answer likewise for C=CCOC(=O)NC(Cc1ccc(O)cc1)C(=O)O (configuration not stated)
-- reply -2.45

-- ask Please answer likewise for CC1CCC(O)C(C(O)CC2CC(=O)NC(=O)C2)C1 (configuration not stated)
-- reply 3.45

* * *

Test: NCI Yeast Anticancer Drug Screen. Data for the bub3 strain (AID 167)
Settings: S. cerevisiae bub3 mutant strain, at 50.0 µM, active compounds read high
About 79,000 compounds went through this panel and 15% of them were active in at least one assay; those are over-represented in the sample as a whole. Calls of active or inactive are those of the source. Cut-off read from the data, not from the text of the source: active = growth inhibition above about 70%; inactive = the rest.
READOUT_TYPE: growth inhibition

Would you please look over these solved cases?
- MOLECULE: "COC(=O)c1cc(-c2cccc3ccccc23)[nH]c(=O)c1C#N"
  growth inhibition: "-6.6% (inactive)"
- MOLECULE: "CCOC(Nc1ccccc1[N+](=O)[O-])C(=O)c1ccccc1 (configuration not stated)"
  growth inhibition: "24.4% (inactive)"
- MOLECULE: "COc1cccc2c(Cl)c3ccc(Cl)cc3nc12"
  growth inhibition: "-18.9% (inactive)"
- MOLECULE: "COc1ccc2c(c1)C1(C)CCCC(C)(C(N)=O)C1CC2 (configuration not stated)"
  growth inhibition: "-12.2% (inactive)"
- MOLECULE: "Nc1nc2c(nnn2-c2ccc(Cl)cc2)c(=O)[nH]1"
  growth inhibition: "-0.5% (inactive)"
- MOLECULE: "CCCCCCCC1CCCC1=O (configuration not stated)"
  growth inhibition: "-31.8% (inactive)"
- MOLECULE: "O=C1COC(c2ccccc2O)=NN1CCCN1CCCC1"
  growth inhibition: "14.1% (inactive)"
- MOLECULE: "CCOC(=O)CC/C(=C\\NC(=O)c1ccccc1)NC(=O)c1ccccc1"
  growth inhibition: "-9.55% (inactive)"
- MOLECULE: "Clc1ccccc1/C=C(/c1ccccc1)c1ccccn1"
  growth inhibition: "29.9% (inactive)"
- MOLECULE: "CSc1nc(-c2ccccc2)c(C(=O)NC(C)CN2CCCCC2)s1 (configuration not stated)"
  growth inhibition: "-3.2% (inactive)"

-- ask Look up growth inhibition: CCOC(=O)C1CSC(N)=N1 (configuration not stated)
-- reply 5.65% (inactive)

-- ask Please answer likewise for `CCCCCCCCCCCCCCCCCCNC(=O)N1CCC(C)CC1`
-- reply 4.95% (inactive)

-- ask Please answer likewise for O=C(NNc1ccccc1)NNc1ccccc1 (tested in a mixture with another compound)
-- reply -12.2% (inactive)

-- ask Please answer likewise for CC(Sc1ccccc1)C(CO)(CO)[N+](=O)[O-] (configuration not stated)
-- reply -14.6% (inactive)

* * *

// values below are reported growth inhibition
Test: NCI Yeast Anticancer Drug Screen. Data for the cln2 rad14 strain (AID 165);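 note: 0% = growth equal to vehicle treated cultures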
Conditions: S. cerevisiae cln2 rad14 strain, at 50.0 µM, active compounds read high
About 79,000 compounds went through this panel and 15% of them were active in at least one assay; those are over-represented in the sample as a whole. The source made the active and inactive calls. Rule as the data show it: active = growth inhibition above about 70%; inactive = the rest.

- MOLECULE: "Cc1cccc(-c2nc3sc(-c4cccc(C)n4)nc3s2)n1"
  growth inhibition: "-29.6% (inactive)"
- MOLECULE: "S=C(S)NCNC(=S)S.[Zn+2]"
  growth inhibition: "-64.2% (inactive)"
- MOLECULE: "CCN(CC)CCSc1nnc(-c2cc(OC)c(OC)c(OC)c2)o1"
  growth inhibition: "14.8% (inactive)"
- MOLECULE: "CN(C)Cc1ccc(O)c(CN(C)C)n1"
  growth inhibition: "-3.65% (inactive)"

-- ask Look up growth inhibition: `COc1c(C)c2nc3ccccc3[nH]c2c2c(=O)ccnc12`
-- reply 14.8% (inactive)

-- ask Please answer likewise for `CC(C)(C)C(=O)N/N=C\c1ccc([N+](=O)[O-])s1`
-- reply 38.7% (inactive)

-- ask Please answer likewise for `O=C(O)c1cc(=O)c2[nH]c3ccccc3c2s1`
-- reply 9.55% (inactive)

-- ask Please answer likewise for Nc1ncnc2c1ncn2C1OC(C(O)CO)C(O)C1N (configuration not stated)
-- reply -14.8% (inactive)

-- ask Please answer likewise for `CN(C)c1ccc(C2c3c(oc4ccccc4c3=O)Oc3oc4ccccc4c(=O)c32)cc1`
-- reply 5.4% (inactive)

-- ask Please answer likewise for CCCC(NC(=O)CN)C(=O)O (configuration not stated)
-- reply -50% (inactive)

-- ask Please answer likewise for `CC1=CC(=O)C(CN(C)C)(CN(C)C)C(C)(C)C1`
-- reply 0.25% (inactive)

-- ask Please answer likewise for `O=C1Nc2ccccc2/C1=N/N1C(=O)CSC1=S`
-- reply 7.2% (inactive)

-- ask Please answer likewise for CC(=O)OC1CC(OC(C)=O)C(OC(C)=O)C(C)O1 (configuration not stated)
-- reply -15.7% (inactive)

Reference for the values: PubChem BioAssay (NCI)
